# ASSAY EXPLANATION: Retardation factor in 1-butanol-pyridine-0.1% acetic acid at 5:3:11 ratio by TLC
# Type: physicochemical
*1 amine or outer side, *2 acyl side, *3 side chain or, on linkers, in order; H or OH if unused. Where a SMILES comes first, the peptide text is derived from it. [ ]: non-standard residue; d: D form. X1 = CCCCCCCCCCCCNCCC[C@@H](N[*:1])C(=O)[*:2]; pGlu = O=C1CC[C@@H](C(=O)O)N1
MEASUREMENT LABEL: Rf

CC(C)C[C@H](NC(=O)[C@@H](CCCN)NC(=O)[C@H](Cc1ccc(O)cc1)NC(=O)[C@H](CO)NC(=O)[C@H](Cc1c[nH]c2ccccc12)NC(=O)[C@@H]1CCC(=O)N1)C(=O)N[C@@H](CCCNC(=N)N)C(=O)N1CCC[C@H]1C(=O)NCC(N)=O = 0.54
CC(=O)NCCCC[C@@H](NC(=O)[C@H](Cc1ccc(O)cc1)NC(=O)[C@H](CO)NC(=O)[C@H](Cc1c[nH]c2ccccc12)NC(=O)[C@H](Cc1cnc[nH]1)NC(=O)[C@@H]1CCC(=O)N1)C(=O)N[C@@H](CC(C)C)C(=O)N[C@@H](CCCNC(=N)N)C(=O)N1CCC[C@H]1C(=O)NCC(N)=O = 0.56
CC(C)C[C@H](NC(=O)[C@@H](CCCN)NC(=O)[C@H](Cc1ccc(O)cc1)NC(=O)[C@H](CO)NC(=O)[C@H](Cc1c[nH]c2ccccc12)NC(=O)[C@H](Cc1cnc[nH]1)NC(=O)[C@@H]1CCC(=O)N1)C(=O)N[C@@H](CCCNC(=N)N)C(=O)N1CCC[C@H]1C(=O)NCC(N)=O = 0.45
CCCCCCCCCCCCNCCCC[C@@H](NC(=O)[C@H](Cc1ccc(O)cc1)NC(=O)[C@H](CO)NC(=O)[C@H](Cc1c[nH]c2ccccc12)NC(=O)[C@H](Cc1cnc[nH]1)NC(=O)[C@@H]1CCC(=O)N1)C(=O)N[C@@H](CC(C)C)C(=O)N[C@@H](CCCNC(=N)N)C(=O)N1CCC[C@H]1C(=O)NCC = 0.61
CC(C)C[C@H](NC(=O)[C@@H](CCCCN)NC(=O)[C@H](Cc1ccc(O)cc1)NC(=O)[C@H](CO)NC(=O)[C@H](Cc1c[nH]c2ccccc12)NC(=O)[C@H](Cc1cnc[nH]1)NC(=O)[C@@H]1CCC(=O)N1)C(=O)N[C@@H](CCCNC(=N)N)C(=O)N1CCC[C@H]1C(=O)NCC(N)=O = 0.42
CCCCCCCCCCCCNCCC[C@@H](NC(=O)[C@H](Cc1ccc(O)cc1)NC(=O)[C@H](CO)NC(=O)[C@H](Cc1c[nH]c2ccccc12)NC(=O)[C@H](Cc1cnc[nH]1)NC(=O)[C@@H]1CCC(=O)N1)C(=O)N[C@@H](CC(C)C)C(=O)N[C@@H](CCCNC(=N)N)C(=O)N1CCC[C@H]1C(=O)NCC = 0.62
CCCCCCCCCCCCNCCCC[C@@H](NC(=O)[C@H](Cc1ccc(O)cc1)NC(=O)[C@H](CO)NC(=O)[C@H](Cc1c[nH]c2ccccc12)NC(=O)[C@H](Cc1cnc[nH]1)NC(=O)[C@@H]1CCC(=O)N1)C(=O)N[C@@H](CC(C)C)C(=O)N[C@@H](CCCNC(=N)N)C(=O)N1CCC[C@H]1C(=O)NCC(N)=O = 0.56
CCNC(=O)[C@@H]1CCCN1C(=O)[C@H](CCCNC(=N)N)NC(=O)[C@H](CC(C)C)NC(=O)[C@@H](CCCN)NC(=O)[C@H](Cc1ccc(O)cc1)NC(=O)[C@H](CO)NC(=O)[C@H](Cc1c[nH]c2ccccc12)NC(=O)[C@H](Cc1cnc[nH]1)NC(=O)[C@@H]1CCC(=O)N1 = 0.47
CCNC(=O)[C@@H]1CCCN1C(=O)[C@H](CCCNC(=N)N)NC(=O)[C@H](CC(C)C)NC(=O)[C@@H](CCCCN)NC(=O)[C@H](Cc1ccc(O)cc1)NC(=O)[C@H](CO)NC(=O)[C@H](Cc1c[nH]c2ccccc12)NC(=O)[C@H](Cc1cnc[nH]1)NC(=O)[C@@H]1CCC(=O)N1 = 0.53
CCCCCCCCCCCCNCCCC[C@@H](NC(=O)[C@H](Cc1ccc(O)cc1)NC(=O)[C@H](CO)NC(=O)[C@H](Cc1c[nH]c2ccccc12)NC(=O)[C@@H]1CCC(=O)N1)C(=O)N[C@@H](CC(C)C)C(=O)N[C@@H](CCCNC(=N)N)C(=O)N1CCC[C@H]1C(=O)NCC(N)=O = 0.66
CCCCCCCCCCCCNCCC[C@@H](NC(=O)[C@H](Cc1ccc(O)cc1)NC(=O)[C@H](CO)NC(=O)[C@H](Cc1c[nH]c2ccccc12)NC(=O)[C@@H]1CCC(=O)N1)C(=O)N[C@@H](CC(C)C)C(=O)N[C@@H](CCCNC(=N)N)C(=O)N1CCC[C@H]1C(=O)NCC ([pGlu]WSY[X1]LRP-NHEt) = 0.71
CCCCCCCCCCCCNCCC[C@@H](NC(=O)[C@H](Cc1ccc(O)cc1)NC(=O)[C@H](CO)NC(=O)[C@H](Cc1c[nH]c2ccccc12)NC(=O)[C@H](Cc1cnc[nH]1)NC(=O)[C@@H]1CCC(=O)N1)C(=O)N[C@@H](CC(C)C)C(=O)N[C@@H](CCCNC(=N)N)C(=O)N1CCC[C@H]1C(=O)NCC(N)=O = 0.59
CCNC(=O)[C@@H]1CCCN1C(=O)[C@H](CCCNC(=N)N)NC(=O)[C@H](CC(C)C)NC(=O)[C@@H](CCCCN)NC(=O)[C@H](Cc1ccc(O)cc1)NC(=O)[C@H](CO)NC(=O)[C@H](Cc1c[nH]c2ccccc12)NC(=O)[C@@H]1CCC(=O)N1 = 0.59
CCCCCCCCCCCCNCCC[C@@H](NC(=O)[C@H](Cc1ccc(O)cc1)NC(=O)[C@H](CO)NC(=O)[C@H](Cc1c[nH]c2ccccc12)NC(=O)[C@@H]1CCC(=O)N1)C(=O)N[C@@H](CC(C)C)C(=O)N[C@@H](CCCNC(=N)N)C(=O)N1CCC[C@H]1C(=O)NCC(N)=O ([pGlu]WSY[X1]LRPG-NH2) = 0.67
